tgt: cynomolgus monkey (cyno) TIGIT protein (cynomolgus monkey, UniProt A0A7N9I9V4 89-209)
Sequence (A0A7N9I9V4 entry or part of it): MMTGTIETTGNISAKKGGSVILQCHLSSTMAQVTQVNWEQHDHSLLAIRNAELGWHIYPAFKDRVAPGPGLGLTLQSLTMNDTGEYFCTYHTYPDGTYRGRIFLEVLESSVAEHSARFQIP
assay details: SPR, captured mAb
recorded metric: pKd
Convention used: pKd is expressed as -log10 of the molar concentration.

Worked cases, answers included:
>  <binder>
h10A5.L4H4 (antibody, V domains shown, Fully humanized version; FR/HVR pieces in order) VH: EVTLKESGPALVKPTQTLTLTCTFSGFSLTTYGMGVSWIRQPPGKALEWLASIWWNGNTYYNPSLRSRLTITKDTSKNQVVLTMTNMDPVDTATYYCAHTGGAVITWFAYWGQGTLVTVSS VL: EIVMTQSPATLSVSPGERATLSCKASQSVGKNIAWYQQKPGQAPRLLIYYASNRYTGIPARFSGSGSGTEFTLTISSLQSEDFAVYYCQHIYNSPYPFGQGTKVEIK

>  <pKd>
9.07

$$$$
>  <binder>
h6B2.L1H1 (antibody, V domains shown, Humanized; FR/HVR pieces in order; also called h1.6B2.L1H1) VH: EVTLKESGPALVKPTQTLTLTCTFSGFSLSTYGMGVSWIRQPPGKALEWLASIWWNGNTYYNPSLKSRLTVTKDASKNQAVLTMTNMDPVDTATYYCAHTGGAVITWFAYWGQGTLVTVSS VL: DIQMTQSPSSLSASVGDRVTITCKASQSVGKNIAWYQQKPGKSPKLLIYYASNRYTGVPSRFSGSGSGTDFTFTISSLQPEDIATYYCQHIYNSPYPFGQGTKVEIK

>  <pKd>
9.02

$$$$
>  <binder>
h15C8.L1H8 (antibody, V domains shown, VH: F91Y against h15C8.L1H1; FR/HVR pieces) VH: EVQLVQSGAEVKKPGASVKVSCKASGYTFTEHSIYWLRQAPGQRLEIIGRIDPKNGRTYFVDKFKNRATLTTDTSASTAYMELSSLRSEDTAVYYCARIDGFYFDFWGQGTLVTVSS VL: DIQLTQSPSFLSASVGDRVTITCKGSQNVNKYLVWYQQKPGKAPKLLIYSTDNLQSGIPSRFSGSGSGTEYTLTISSLQPEDFATYFCYQYNNGFTFGQGTKVEIK

>  <pKd>
9.39

$$$$

Continue with the binder presented below.
Give me measured pKd, please, for this binder: rat7E7 (antibody, V domains shown, SD rat-derived; rat V domains as FR/HVR pieces; also called 1.7E7; Chimeric 1.7E7) VH: EVQLQQSGPELQRPGASVKLSCKATGYTFTEYSIYWVKQRPKQSLEIIGRIDPKNGRTYYVDKFKNRATLTADTSSNTAYMQLSSLTSEDTATYFCTRIYGFYFDFWGQGVMVTASS VL: NIHLTQSPSLLSASVGDRVTLSCKGSQNVNKYLVWYQQKLGEAPKLLIYNTDNLQSGIPSRFSGSGSGTDYTLTISSLQPEDAATYFCYQYNNGFTFGSGTKLEIK
10.15
